target: Gag-Pol polyprotein [588-1027]/[588-1147] (Human immunodeficiency virus 1, UniProt P04585)
quantity name: IC50 (µM)
Give the value in µM but do not write µM after it.

Dear colleague, please send me the reported IC50 for `C#CCc1c(C)nn(-c2ccccc2)c1-c1ccccc1` when you can.
13.4

* * *

molecular target: Gag-Pol polyprotein [588-1027,P823L]/[588-1147,P823L] (Human immunodeficiency virus 1, UniProt P04585, P823L); construct: 588-1027; 588-1147; assay: HIV-1 RT Assay; details: pH 8.3; 28 °C
quantity name: pIC50
// scale note: pIC50 = -log10(conc_M); give the bare number

Supply pIC50 value. Item: `C#CCc1c(C)nn(-c2ccccc2)c1-c1ccccc1`
5.81
